# PROCEDURE_TEXT: Effect of arylcarboxylic acid on solubility of pyridonecarboxylic acid - 3 (Table 3)
# Format: physicochemical
# EXPERIMENTAL_CONTEXT: 0.1% aqueous sodium dihydrogenphosphate, pH 9, diclofenac added, pH 9, 0.1% aqueous sodium dihydrogenphosphate, 25° C., one week
MEASURED_PARAMETER: solubility thermodynamic at 168 h (µg/mL)
Please respond with the number in µg/mL and leave the unit unwritten.

Reported solubility thermodynamic at 168 h of CCn1cc(C(=O)O)c(=O)c2cc(F)c(N3CCNC(C)C3)c(F)c21 (stereo not shown) : 3330

---

# PROCEDURE_TEXT: physchem
# EXPERIMENTAL_CONTEXT: 1.6% borate buffer, pH 7
MEASURED_PARAMETER: solubility (µg/mL)
Please respond with the number in µg/mL and leave the unit unwritten.

Reported solubility of CCn1cc(C(=O)O)c(=O)c2cc(F)c(N3CCNCC3)cc21 [norfloxacin] : 390

---

# PROCEDURE_TEXT: Effect of arylcarboxylic acid on solubility of pyridonecarboxylic acid - 1 (Table 1)
# Type: physicochemical
# EXPERIMENTAL_CONTEXT: 0.1% aqueous sodium dihydrogenphosphate, pH 7, without addition, pH 7, 0.1% aqueous sodium dihydrogenphosphate, 25° C., one week
Parameter: solubility thermodynamic at 168 h. Scope: all listed entries.
The reply should consist of the numeric value with the unit placed after it.

{"COMPOUND": "CCn1cc(C(=O)O)c(=O)c2cc(F)c(N3CCNCC3)nc21", "solubility thermodynamic at 168 h": "260 µg/mL"}

Reported solubility thermodynamic at 168 h of `CCn1cc(C(=O)O)c(=O)c2cc(F)c(N3CCNCC3)cc21` : 400 µg/mL
